Numbers sourced from paper PMC7400135.

# Test system: multidrug-resistant M. tuberculosis Peru isolate
# TEST SUMMARY: microbe, parasite or virus in culture
# Assay type: cell-based
# ASSAY CONTEXT: Mycobacterium tuberculosis, 336 h, read-out: MIC MDR-TB
Task for the reader: assign each of the following compounds its reported MIC.
Give bare numbers, in µg/mL.

Would you mind listing MIC for each of the following compounds?
1. CCN(CC)c1ccc(C(=O)/C=C/c2ccc([N+](=O)[O-])o2)cc1 [Compound 3]
2. O=C(/C=C/c1ccc([N+](=O)[O-])o1)c1ccc(N2CCOCC2)cc1 [Compound 1]
3. O=C(/C=C/c1ccc([N+](=O)[O-])o1)c1ccc(N2CCCCC2)cc1 [Compound 2]

Output:
0.488
0.976
1.95
